- SYSTEM NAME: V600E full-length B-Raf (Homo sapiens, UniProt P15056, V600E)
- Construct: 1 μM FSBA-MEK and 20 nM V600E full-length B-Raf; made in house; host or cells: Sf9 insect cells (baculovirus)
- Sequence (P15056 whole entry V600E): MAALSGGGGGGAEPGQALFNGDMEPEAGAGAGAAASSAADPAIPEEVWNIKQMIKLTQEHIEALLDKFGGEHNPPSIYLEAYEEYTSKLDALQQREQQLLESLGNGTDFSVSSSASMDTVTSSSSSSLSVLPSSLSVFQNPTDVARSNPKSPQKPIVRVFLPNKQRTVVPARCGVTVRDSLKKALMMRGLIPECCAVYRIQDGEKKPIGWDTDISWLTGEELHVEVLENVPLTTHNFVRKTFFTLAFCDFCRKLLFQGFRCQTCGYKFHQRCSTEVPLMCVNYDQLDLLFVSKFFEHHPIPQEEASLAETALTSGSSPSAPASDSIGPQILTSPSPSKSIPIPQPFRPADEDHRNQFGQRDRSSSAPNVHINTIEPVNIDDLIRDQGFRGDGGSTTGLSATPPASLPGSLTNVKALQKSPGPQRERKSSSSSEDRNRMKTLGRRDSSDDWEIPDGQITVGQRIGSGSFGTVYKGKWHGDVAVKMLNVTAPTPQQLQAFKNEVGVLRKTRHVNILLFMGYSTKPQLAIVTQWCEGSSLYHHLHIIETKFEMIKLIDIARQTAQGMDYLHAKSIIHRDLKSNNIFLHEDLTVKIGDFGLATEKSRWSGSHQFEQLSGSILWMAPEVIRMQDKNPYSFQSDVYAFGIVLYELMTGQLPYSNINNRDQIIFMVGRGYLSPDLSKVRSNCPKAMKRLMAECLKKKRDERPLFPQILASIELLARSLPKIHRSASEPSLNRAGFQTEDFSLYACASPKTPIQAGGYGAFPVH
- ASSAY EXPLANATION: B-Raf IC50 assay (incorporation of 33P phosphate into FSBA-modified MEK)
- Assay type: biochemical
PROPERTY LABEL: IC50 (nM)
Your answer is read as nM, so omit the unit and give the number.

Query: Requested field: IC50. Item: `CCCS(=O)(=O)Nc1ccc(F)c(NC(=O)Nc2ncnc3[nH]ncc23)c1F`
Reply: 5.5

Measured values drawn from patent US20120157453A1 for this set.
